Below, each entry is listed with its recorded kinase still bound, per cent of control.
Target: MYO3B (human) (UniProt Q8WXR4)
Sequence (Q8WXR4 whole entry, looked up): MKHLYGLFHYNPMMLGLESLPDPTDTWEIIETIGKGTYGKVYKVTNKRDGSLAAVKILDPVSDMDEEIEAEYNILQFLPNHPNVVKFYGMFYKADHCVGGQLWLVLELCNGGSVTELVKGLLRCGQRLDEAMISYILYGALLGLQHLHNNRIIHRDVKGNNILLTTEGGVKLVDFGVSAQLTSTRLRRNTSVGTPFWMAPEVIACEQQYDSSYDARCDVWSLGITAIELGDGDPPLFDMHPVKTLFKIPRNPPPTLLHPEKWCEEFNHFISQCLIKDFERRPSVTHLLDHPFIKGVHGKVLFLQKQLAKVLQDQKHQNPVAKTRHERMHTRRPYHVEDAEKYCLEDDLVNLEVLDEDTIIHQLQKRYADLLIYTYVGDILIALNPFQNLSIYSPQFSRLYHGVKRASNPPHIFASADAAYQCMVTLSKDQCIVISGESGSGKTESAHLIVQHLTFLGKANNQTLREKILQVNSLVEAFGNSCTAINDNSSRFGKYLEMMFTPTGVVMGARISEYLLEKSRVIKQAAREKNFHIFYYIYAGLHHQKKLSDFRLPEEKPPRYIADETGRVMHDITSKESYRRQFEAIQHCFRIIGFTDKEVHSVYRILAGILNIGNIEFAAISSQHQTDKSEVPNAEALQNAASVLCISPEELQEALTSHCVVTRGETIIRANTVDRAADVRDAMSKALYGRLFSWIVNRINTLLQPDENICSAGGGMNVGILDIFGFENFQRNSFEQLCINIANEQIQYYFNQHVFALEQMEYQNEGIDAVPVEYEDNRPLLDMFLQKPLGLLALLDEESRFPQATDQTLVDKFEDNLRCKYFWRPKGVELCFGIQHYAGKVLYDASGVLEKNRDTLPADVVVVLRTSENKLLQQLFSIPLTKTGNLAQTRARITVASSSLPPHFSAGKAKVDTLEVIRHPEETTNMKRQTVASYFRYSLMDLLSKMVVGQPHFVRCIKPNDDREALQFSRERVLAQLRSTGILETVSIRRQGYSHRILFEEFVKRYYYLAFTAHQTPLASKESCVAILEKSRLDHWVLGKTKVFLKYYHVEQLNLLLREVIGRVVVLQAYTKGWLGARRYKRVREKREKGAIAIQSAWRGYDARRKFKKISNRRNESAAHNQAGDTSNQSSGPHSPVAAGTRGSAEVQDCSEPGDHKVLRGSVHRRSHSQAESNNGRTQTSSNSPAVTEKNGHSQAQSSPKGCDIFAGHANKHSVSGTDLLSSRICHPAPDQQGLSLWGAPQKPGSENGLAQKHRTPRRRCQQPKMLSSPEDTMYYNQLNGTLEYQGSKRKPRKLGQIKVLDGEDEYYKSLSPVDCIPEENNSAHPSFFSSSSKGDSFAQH
Assay: KINOMEscan competition binding
Details: compound 10.0 µM
Numeric only. Scale: %

Known results for compounds:
TEST_SMILES	VAL
O=C(NOC[C@H](O)CO)c1ccc(F)c(F)c1Nc1ccc(I)cc1F	99
N#Cc1c(NC(=O)c2cccc3ccccc23)sc2c1CCCC2	88
CCC(=O)N1CCN(c2ccc(-n3c(=O)ccc4cnc5ccc(-c6cnc7ccccc7c6)cc5c43)cc2C(F)(F)F)CC1	100
Cc1cc([C@@H](C)Nc2ccccc2C(=O)O)c2nc(N3CCOCC3)cc(=O)n2c1	93
Cn1c(=O)n(-c2ccc(C(C)(C)C#N)cc2)c2c3cc(-c4cnc5ccccc5c4)ccc3ncc21	100
CC[C@@H]1C(=O)N(C)c2cnc(Nc3ccc(C(=O)NC4CCN(C)CC4)cc3OC)nc2N1C1CCCC1	100
COc1cc(N2CCN(C)CC2)ccc1Nc1nc(N)c(C(=O)c2c(Cl)cccc2Cl)s1	94
O=C1Nc2ccc(I)cc2/C1=C/c1cc(Br)c(O)c(Br)c1	8.6

Query: Field request: kinase still bound, per cent of control | item: C[C@@H](Oc1cc(-n2cnc3ccc(CN4CCN(C)CC4)cc32)sc1C(N)=O)c1ccccc1C(F)(F)F
Response: 100

Query: Entry Nc1ccc(-c2ccc3ncc4ccc(=O)n(-c5cccc(C(F)(F)F)c5)c4c3c2)cn1 has what kinase still bound, per cent of control?
Response: 87

Query: Could you tell me which kinase still bound, per cent of control is on file for CN(C)C/C=C/C(=O)Nc1cccc(Nc2ncc3c(n2)N(C)c2ccccc2C(=O)N3C)c1 ?
Response: 100

Query: Entry under review: CCCS(=O)(=O)Nc1ccc(F)c(C(=O)c2c[nH]c3ncc(-c4ccc(Cl)cc4)cc23)c1F . Reported kinase still bound, per cent of control?
Response: 64

Query: Quick one: kinase still bound, per cent of control for O=C(NC1CC1)c1cccc(-c2ccc3c(NC(=O)C4CC4)n[nH]c3c2)c1 ?
Response: 93

Query: Name the recorded kinase still bound, per cent of control for C=CC(=O)Nc1cc(NC(=O)c2ccc(C)c(NC(=O)c3ccno3)c2)cc(C(F)(F)F)c1 .
Response: 100

Query: Data request, read-out kinase still bound, per cent of control, for C=CC(=O)Nc1cccc(Nc2nc(N[C@H]3CC[C@H](N(C)C)CC3)nc3c2ncn3C(C)C)c1
Response: 100

Query: kinase still bound, per cent of control; subject: CCOc1cc2ncc(C#N)c(Nc3ccc(OCc4ccccn4)c(Cl)c3)c2cc1NC(=O)/C=C/CN(C)C
Response: 100

Query: Can you share its kinase still bound, per cent of control? I mean this compound: COc1cc(C(=O)NC2CCN(C)CC2)ccc1Nc1ncc2c(n1)N(C1CCCC1)CCC(=O)N2C(C)C
Response: 100

Query: Consider the compound shown here: Cc1ccc(NC(=O)c2cccc(C(C)(C)C#N)c2)cc1Nc1ccc2ncn(C)c(=O)c2c1 What is its recorded kinase still bound, per cent of control?
Response: 100

* * *

Reported kinase still bound, per cent of control values are given for each entry in this list.
Biological target: MAP3K6 (human) (UniProt O95382)
Sequence (O95382 whole entry, looked up): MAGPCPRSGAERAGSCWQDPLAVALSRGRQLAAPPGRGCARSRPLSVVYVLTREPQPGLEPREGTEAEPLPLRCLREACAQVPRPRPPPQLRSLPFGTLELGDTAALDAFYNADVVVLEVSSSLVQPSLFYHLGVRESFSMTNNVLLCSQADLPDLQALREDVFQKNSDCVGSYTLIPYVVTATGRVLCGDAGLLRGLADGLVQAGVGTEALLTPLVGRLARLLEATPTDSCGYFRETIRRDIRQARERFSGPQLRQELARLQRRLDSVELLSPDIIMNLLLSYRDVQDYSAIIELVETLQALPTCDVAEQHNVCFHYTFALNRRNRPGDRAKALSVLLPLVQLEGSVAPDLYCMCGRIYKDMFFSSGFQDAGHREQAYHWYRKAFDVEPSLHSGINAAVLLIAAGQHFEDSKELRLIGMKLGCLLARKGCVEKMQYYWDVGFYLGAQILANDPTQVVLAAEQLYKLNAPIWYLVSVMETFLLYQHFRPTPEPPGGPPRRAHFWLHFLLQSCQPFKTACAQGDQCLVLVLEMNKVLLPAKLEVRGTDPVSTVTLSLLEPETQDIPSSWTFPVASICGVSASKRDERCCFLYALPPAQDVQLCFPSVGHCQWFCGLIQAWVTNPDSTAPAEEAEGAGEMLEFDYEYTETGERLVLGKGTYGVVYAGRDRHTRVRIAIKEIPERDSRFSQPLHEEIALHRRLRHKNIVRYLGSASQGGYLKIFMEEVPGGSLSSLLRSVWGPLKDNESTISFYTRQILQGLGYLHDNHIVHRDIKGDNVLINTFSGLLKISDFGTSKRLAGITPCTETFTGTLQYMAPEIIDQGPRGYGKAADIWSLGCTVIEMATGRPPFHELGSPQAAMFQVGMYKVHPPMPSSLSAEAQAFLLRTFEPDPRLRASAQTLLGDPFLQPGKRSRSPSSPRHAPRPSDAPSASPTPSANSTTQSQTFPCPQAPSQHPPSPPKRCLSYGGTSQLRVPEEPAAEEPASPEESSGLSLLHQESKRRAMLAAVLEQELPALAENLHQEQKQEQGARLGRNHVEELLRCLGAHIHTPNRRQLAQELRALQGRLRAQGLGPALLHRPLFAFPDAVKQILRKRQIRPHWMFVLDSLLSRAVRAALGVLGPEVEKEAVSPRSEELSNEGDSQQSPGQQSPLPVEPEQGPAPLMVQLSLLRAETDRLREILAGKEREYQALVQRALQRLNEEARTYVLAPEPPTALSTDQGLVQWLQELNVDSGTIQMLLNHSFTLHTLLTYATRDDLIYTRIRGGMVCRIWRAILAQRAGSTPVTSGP
Assay: KINOMEscan competition binding
Conditions: compound 10.0 µM
# output: bare number, implied unit %

TEST_SMILES	DISPLAY_UNIT	kinase still bound, per cent of control
O=C(O)c1ccc(Nc2ncc3c(n2)-c2ccc(Cl)cc2C(c2c(F)cccc2F)=NC3)cc1	%	99
CCOc1cc2ncc(C#N)c(Nc3ccc(OCc4ccccn4)c(Cl)c3)c2cc1NC(=O)/C=C/CN(C)C	%	87
O=C(NC1CC1)c1cccc(-c2ccc3c(NC(=O)C4CC4)n[nH]c3c2)c1	%	86
O=C(NOC[C@H](O)CO)c1ccc(F)c(F)c1Nc1ccc(I)cc1F	%	95
Cc1ccc2nc(NCCN)c3ncc(C)n3c2c1	%	100
C[C@@H](Oc1cc(-n2cnc3ccc(CN4CCN(C)CC4)cc32)sc1C(N)=O)c1ccccc1C(F)(F)F	%	75

Query compound follows.
Query: Could you share which kinase still bound, per cent of control value was measured for CN(C)C/C=C/C(=O)Nc1cccc(Nc2ncc3c(n2)N(C)c2ccccc2C(=O)N3C)c1 ?
Response: 94
